tested on: CEM cells HIV-1 protection, formazan growth assay; test: NCI AIDS Antiviral Assay
property_name: EC50

1. CSc1nc(Br)nc2ncn(C3CC(Oc4ccc(C)cc4)C(COc4ccc(C)cc4)O3)c12 (configuration not stated)    > 200 µM
2. CCCCCCCCCCCCSC(=S)c1c(C)[nH]n(-c2ccccc2)c1=O    > 42.7 µM
3. Cc1cc(=O)n2nc(CSc3n[nH]c(=S)s3)sc2n1    > 200 µM
4. O=C(O)[C@@H]1CSC(c2ccncc2)N1 (some centres not stated)    > 200 µM
5. CC/C(CC(=O)CCC(=O)Nc1c(C)cccc1C)=N\NC(=O)NN    > 145 µM
6. CCOC(=O)NC(Nc1ncn(C(NC(=O)OCC)(C(F)(F)F)C(F)(F)F)n1)(C(F)(F)F)C(F)(F)F    > 200 µM
7. CC1(C)OCC2(CO1)CSCCCSCC1(COC(C)(C)OC1)CSCCCSC2    > 10.5 µM
